SYSTEM_TESTED: Fc-fusion protein of human carbonic anhydrase IX (human, UniProt Q16790 38-414)
ASSAY: SPR, captured hCAIX-Fc; t1/2 category C: 2.1-5.0 min
Starred links: 1 amine or outer side, 2 acyl side, 3 side chain; linkers in the order of their positions; H or OH if unused. Positions of bridges follow the written chain, without caps; N, C: chain ends. Non-standard residues stand in square brackets, D forms with d. Primed or numbered codes have the meaning given here. *: point of attachment. DOTA = O=C(O)CN1CCN(CC(=O)O)CCN(CC(=O)*)CCN(CC(=O)O)CC1; mXylylene = c1cc(C[*:1])cc(C[*:2])c1; Dap = NC[C@H](N)C(=O)O; AEEA = NCCOCCOCC(=O)O; Ttds″ = Ttds spacer; Sar = CNCC(=O)O
VALUE_KIND: t1/2 (half-life of the complex, SPR)

* {DOTA-Ttds″}-VYCE[Sar]DWLTWQC-NH2 (linker 3-12 via mXylylene; not fully specified) [3BP-3271] | 2.1 to 5 min
* {DOTA-Gab}-DCE[dP]DWLTW[Dap]C-NH2 (lactam 1-10; linker 2-11 via mXylylene) [3BP-4263] | 2.1 to 5 min
* {DOTA-AEEA}-YCE[dP]DWLTWSC-NH2 (linker 2-11 via mXylylene; SMILES CC(C)C[C@@H]1NC(=O)[C@H](Cc2c[nH]c3ccccc23)NC(=O)[C@H](CC(=O)O)NC(=O)[C@H]2CCCN2C(=O)[C@H](CCC(=O)O)NC(=O)[C@@H](NC(=O)[C@H](Cc2ccc(O)cc2)NC(=O)COCCOCCNC(=O)CN2CCN(CC(=O)O)CCN(CC(=O)O)CCN(CC(=O)O)CC2)CSCc2cccc(c2)CSC[C@@H](C(N)=O)NC(=O)[C@H](CO)NC(=O)[C@H](Cc2c[nH]c3ccccc23)NC(=O)[C@H]([C@@H](C)O)NC1=O) [3BP-3869] | 2.1 to 5 min

Sourced from patent US20250339569A1
